# Tested on: ADP-induced platelet aggregation
# PROTOCOL DETAILS: In vitro ADP aggregation (platelet-rich plasma)
# Type: cell-based
# TEST SETTINGS: Table I; rat platelet-rich plasma, ADP 1-2 uM
# Description: Rationale: The changes in optical density resulting from ADP-stimulation of platelet-rich plasma is used to identify compounds which inhibit or reverse platelet activation. 1. Platelet-rich plasma (PRP) is obtained from citrated whole rat blood. 2. […] 6. The aggregation wave generated is monitored until the reversal phase is observed. 7. Platelet aggregation is quantified as the units of depth between the baseline and maximum depth. […]
Where a name gives a salt, the structure may show the parent alone.
MEASUREMENT TYPE: pIC50
Would you please state pIC50, meaning minus log10 of the concentration in mol/L, as a bare number?

Consider the following illustrative entries.
{"columns": ["COMPOUND", "pIC50"],
 "data": [
  ["O=C(O)CCC/C(F)=C1/C[C@@H]2[C@@H](/C=C/[C@@H](O)C3CCCC3)[C@H](O)C[C@@H]2O1 [(5F,15S)]", 7.96],
  ["O=C(O)CCC/C=C1/C[C@@H]2[C@@H](/C=C/[C@H](O)C3CCCC3)[C@H](O)C[C@@H]2O1 [(15R)]", 6.20],
  ["O=C(O)CCC/C=C1/C[C@@H]2[C@@H](/C=C/[C@@H](O)C3CCCC3)[C@H](O)C[C@@H]2O1 [(15S)]", 7.12],
  ["O=C(O)CCC[C@@H](F)C1=C[C@@H]2[C@@H](/C=C/[C@@H](O)C3CCCC3)[C@H](O)C[C@@H]2O1 [(5R,15S)]", 6.72],
  ["O=C(O)CCC[C@@H](F)C1=C[C@@H]2[C@@H](/C=C/[C@H](O)C3CCCC3)[C@H](O)C[C@@H]2O1 [(5R,15R), sodium salt]", 6.22],
  ["O=C(O)CCC[C@H](F)C1=C[C@@H]2[C@@H](/C=C/[C@H](O)C3CCCC3)[C@H](O)C[C@@H]2O1 [(5S,15R), sodium salt]", 5.07]
]}

Now let's try a different one.
**Query** pIC50 for O=C(O)CCC[C@H](F)C1=C[C@@H]2[C@@H](/C=C/[C@@H](O)C3CCCC3)[C@H](O)C[C@@H]2O1 [(5S,15S)] ?
**Result** 7.00
